These entries and their values trace back to patent US20260285853A1.

Tested on: HTT mRNA
Assay: Splicing RT-qPCR assay, canonical (CJ) and alternative (AJ) junction mRNA, K562 cells
Assay type: cell-based
Conditions: Homo sapiens, K562.3 cells, 24 hours, read-out: HTT AJ (AC50, increase in AJ mRNA)
outcome.measure: AC50

Some entries whose results are on file:
{"structure.string": "COc1c(NC(=O)c2ccc(N3CCNCC3)c3cn[nH]c23)cn2cc(C)nc2c1F", "data.value": "0.1 to 1 µM"}
{"structure.string": "CN[C@@H]1CCN(c2ccc(C(=O)Nc3cc(F)c4nc(C)cn4c3)c3nn(C)cc23)[C@H]1C", "data.value": "> 10 µM"}

Query molecule follows.
Lab note: CCNC1CCN(c2ccc(C(=O)Nc3cc(F)c4nc(C(C)C)cn4c3)c3nn(C)cc23)CC1 gave AC50 of > 10 µM
